System: HCV genotype 1b (Con1) replicon in HUH-7 cells
run_description: HCV replicon luciferase reporter assay, genotype 1b
Type: cell-based
particulars: Hepatitis C virus, Huh-7, 72 h, HCV genotype 1b replicon luciferase, 3 days incubation, read-out: LE_1b (EC50, range)
pEC50: −log10 of the molar value.
endpoint_label: pEC50

CC[C@@H]1C[C@H](C)CC/C=C\[C@@H]2C[C@@]2(C(=O)NS(=O)(=O)C2(C)CC2)NC(=O)[C@@H]2C[C@@H](Oc3cc4nc(OC)c(C(F)(F)F)nc4cc3OC)CN2C(=O)[C@H]1NC(=O)OC(C)(C)C : 7.46 to 8.30

Input: Look up pEC50 for this compound: CC[C@@H]1C[C@H](C)CC/C=C\[C@@H]2C[C@@]2(C(=O)NS(=O)(=O)C2(C)CC2)NC(=O)[C@@H]2C[C@@H](Oc3nc4cc(OC)ccc4nc3C(C)C)CN2C(=O)[C@H]1NC(=O)OC(C)(C)C
Output: 8.30 to 9.00

----------
EC50 reference
Test system: HCV genotype 1b (Con1) replicon in HUH-7 cells
run_description: HCV replicon luciferase reporter assay, genotype 1b
Type: cell-based
particulars: Hepatitis C virus, Huh-7, 72 h, HCV genotype 1b replicon luciferase, 3 days incubation, read-out: LE_1b (EC50, range)

COc1cnc(O[C@@H]2C[C@H]3C(=O)N[C@]4(C(=O)NS(=O)(=O)C5(CF)CC5)C[C@H]4/C=C\CC[C@@H](C)C[C@@H](C)[C@H](NC(=O)OC(C)(C)C)C(=O)N3C2)c2ccccc12 [Compound 4157] : < 5.46 nM
COc1ccc2c(O[C@@H]3C[C@H]4C(=O)N[C@]5(C(=O)NS(=O)(=O)C6(C)CC6)C[C@H]5/C=C\CC[C@@H](C)C[C@@H](C)[C@H](NC(=O)NC(C)(C)C)C(=O)N4C3)nc(-c3ccc(OC(C)C)nc3)cc2c1 [Compound 5231] : < 5.46 nM

Input: // fetch HCV genotype 1b (Con1) replicon in HUH-7 cells EC50 for CCOc1ccc2nc(C(F)(F)F)c(O[C@@H]3C[C@H]4C(=O)N[C@]5(C(=O)NS(=O)(=O)C6(C)CC6)C[C@H]5/C=C\CC[C@H](C)C[C@@H](C)[C@H](NC(=O)OC(C)(C)C)C(=O)N4C3)nc2c1 [Compound 4347]
Output: 1.01 to 5 nM

Input: // fetch HCV genotype 1b (Con1) replicon in HUH-7 cells EC50 for CCOc1nnc(O[C@@H]2C[C@H]3C(=O)N[C@]4(C(=O)NS(=O)(=O)C5CC5)C[C@H]4/C=C\CC[C@@H](C)C[C@@H](CC)[C@H](NC(=O)OC(C)(C)C(F)(F)F)C(=O)N3C2)c2ccccc12 [Compound 5045]
Output: < 5.46 nM

Input: // fetch HCV genotype 1b (Con1) replicon in HUH-7 cells EC50 for COc1ccc2c(O[C@@H]3C[C@H]4C(=O)N[C@]5(C(=O)NS(=O)(=O)C6CC6)C[C@H]5/C=C\CC[C@@H](C)C[C@@H](C)[C@H](NC(=O)OC(C)(C)C(C)(F)F)C(=O)N4C3)nc(-c3ccc4c(c3)OCCO4)cc2c1 [Compound 5241]
Output: < 5.46 nM

Input: // fetch HCV genotype 1b (Con1) replicon in HUH-7 cells EC50 for C[C@H]1CC/C=C\[C@@H]2C[C@@]2(C(=O)NS(=O)(=O)C2(C)CC2)NC(=O)[C@@H]2C[C@@H](Oc3nccc4c5c(ccc34)N(C)CCO5)CN2C(=O)[C@@H](NC(=O)NC(C)(C)C)[C@H](C)C1 [Compound 5301]
Output: < 5.46 nM

Input: // fetch HCV genotype 1b (Con1) replicon in HUH-7 cells EC50 for [2H]C([2H])([2H])C(OC(=O)N[C@@H]1C(=O)N2C[C@H](Oc3nccc4cc(OC)c(F)cc34)C[C@H]2C(=O)N[C@]2(C(=O)NS(=O)(=O)C3CC3)C[C@H]2/C=C\CC[C@@H](C)C[C@H]1CC)(C([2H])([2H])[2H])C(F)(F)F [Compound 5471]
Output: 0.1 to 0.5 nM

Input: // fetch HCV genotype 1b (Con1) replicon in HUH-7 cells EC50 for CC[C@@H]1C[C@H](C)CC/C=C\[C@@H]2C[C@@]2(C(=O)NS(=O)(=O)C2CC2)NC(=O)[C@@H]2C[C@@H](Oc3nccc4c5c(ccc34)OCCO5)CN2C(=O)[C@H]1NC(=O)OC(C)(C)C(F)(F)F [Compound 5338]
Output: < 5.46 nM

Input: // fetch HCV genotype 1b (Con1) replicon in HUH-7 cells EC50 for CCOc1ccc2c(O[C@@H]3C[C@H]4C(=O)N[C@]5(C(=O)NS(=O)(=O)C6(C)CC6)C[C@H]5/C=C\CC[C@@H](C)C[C@@H](CC)[C@H](NC(=O)OC(C)(C)C(F)(F)F)C(=O)N4C3)nccc2c1 [Compound 5369]
Output: 1.01 to 5 nM

Input: // fetch HCV genotype 1b (Con1) replicon in HUH-7 cells EC50 for CCCOc1ccc2c(O[C@@H]3C[C@H]4C(=O)N[C@]5(C(=O)NS(=O)(=O)C6CC6)C[C@H]5/C=C\CC[C@@H](C)C[C@@H](C)[C@H](NC(=O)OC(C)(C)C)C(=O)N4C3)nccc2c1 [Compound 5169]
Output: < 5.46 nM

Input: // fetch HCV genotype 1b (Con1) replicon in HUH-7 cells EC50 for CCOc1cc2ccnc(O[C@@H]3C[C@H]4C(=O)N[C@]5(C(=O)NS(=O)(=O)C6(C)CC6)C[C@H]5/C=C\CC[C@@H](C)C[C@@H](C)[C@H](NC(=O)OC(C)(C)C)C(=O)N4C3)c2cc1F [Compound 5393]
Output: 0.51 to 1 nM

----------
Tested on: HCV genotype 1b (Con1) replicon in HUH-7 cells
run_description: HCV replicon luciferase reporter assay, genotype 1b
Type: cell-based
particulars: Hepatitis C virus, Huh-7, 72 h, HCV genotype 1b replicon luciferase, 3 days incubation, read-out: LE_1b (EC50, range)
EC50 reference

[2H]C([2H])([2H])C(OC(=O)N[C@@H]1C(=O)N2C[C@H](Oc3nn(CC)c(=O)c4ccccc34)C[C@H]2C(=O)N[C@]2(C(=O)NS(=O)(=O)C3CC3)C[C@H]2/C=C\CC[C@@H](C)C[C@H]1C)(C([2H])([2H])[2H])C(F)(F)F : 4.82 to 103 nM

Input: // fetch HCV genotype 1b (Con1) replicon in HUH-7 cells EC50 for COc1nnc(O[C@@H]2C[C@H]3C(=O)N[C@]4(C(=O)NS(=O)(=O)C5(C)CC5)C[C@H]4/C=C\CC[C@H](C)C[C@@H](C)[C@H](NC(=O)O[C@@H]4C[C@@H]5C[C@@H]5C4)C(=O)N3C2)c2ccccc12
Output: < 5.46 nM

Input: // fetch HCV genotype 1b (Con1) replicon in HUH-7 cells EC50 for COc1ccc2c(O[C@@H]3C[C@H]4C(=O)N[C@]5(C(=O)NS(=O)(=O)C6CC6)C[C@H]5/C=C\CC[C@@H](C)C[C@@H](C)[C@H](NC(=O)OC(C)(C)C)C(=O)N4C3)nc(-c3ccc(N4CCOCC4)cc3)cc2c1
Output: < 5.46 nM

Input: // fetch HCV genotype 1b (Con1) replicon in HUH-7 cells EC50 for C[C@@H]1CC/C=C\[C@@H]2C[C@@]2(C(=O)NS(=O)(=O)C2(CF)CC2)NC(=O)[C@@H]2C[C@@H](Oc3nc4c(c5ccccc35)OCCC4)CN2C(=O)[C@@H](NC(=O)OC(C)(C)C(F)(F)F)[C@H](C)C1
Output: < 5.46 nM

----------
Tested on: HCV genotype 1b (Con1) replicon in HUH-7 cells
run_description: HCV replicon luciferase reporter assay, genotype 1b
Format: cell-based
particulars: Hepatitis C virus, Huh-7, 72 h, HCV genotype 1b replicon luciferase, 3 days incubation, read-out: LE_1b (EC50, range)
pEC50: −log10 of the molar value.
pEC50 reference

Input: Look up pEC50 for this compound: COc1ccc2c(O[C@@H]3C[C@H]4C(=O)N[C@]5(C(=O)NS(=O)(=O)C6(C)CC6)C[C@H]5/C=C\CC[C@H](C)C[C@@H](C)[C@H](NC(=O)c5ccc(N(C)C)cc5)C(=O)N4C3)nccc2c1
Output: > 8.26

Input: Look up pEC50 for this compound: COc1ccc2c(O[C@@H]3C[C@H]4C(=O)N[C@]5(C(=O)NS(=O)(=O)C6(CF)CC6)C[C@H]5/C=C\CC[C@@H](C)C[C@@H](C)[C@H](NC(=O)c5ccncc5F)C(=O)N4C3)ncc(OC)c2c1
Output: > 8.26

Input: Look up pEC50 for this compound: CC[C@@H]1C[C@H](C)CC/C=C\[C@@H]2C[C@@]2(C(=O)NS(=O)(=O)C2CC2)NC(=O)[C@@H]2C[C@@H](Oc3cnnc4cc(OC)ccc34)CN2C(=O)[C@H]1NC(=O)OC(C)(C)C
Output: 7.46 to 8.30

Input: Look up pEC50 for this compound: CC[C@@H]1C[C@H](C)CC/C=C\[C@@H]2C[C@@]2(C(=O)NS(=O)(=O)C2(C)CC2)NC(=O)[C@@H]2C[C@@H](Oc3nccc4c5c(ccc34)N(C)CCO5)CN2C(=O)[C@H]1NC(=O)OC(C)(C)C(F)(F)F
Output: > 8.26
